# System: LNCaP xenografts
# PROCEDURE_DETAILS: Biodistribution in LNCaP xenografts
# Assay type: in vivo, mice
# ASSAY_SETUP: 1 h after injection
# Method: All animal experiments were conducted in accordance with Swiss animal welfare laws and regulations under license number 30515 granted by the Veterinary Office, Department of Health, Canton Basel-Stadt, Switzerland. Male athymic nude-Foxn1^nu/Foxn1^+ mice (Envigo), 4–6 wk old, were inoculated subcutaneously on the shoulder with 10^7 LNCaP cells, freshly suspended in a 1:1 ratio of sterile minimum essential medium with basal medium Eagle and Matrigel. […]
METRIC: Tumor-to-Muscles ratio

Here is how some compounds turned out for Tumor-to-Muscles ratio.
O=C(O)CC[C@H](NC(=O)N[C@@H](CCCCNC(=O)[C@H](Cc1ccc2ccccc2c1)NC(=O)c1ccc(CNC(=O)[C@H](CCC(=O)O)NC(=O)[C@H](CCC(=O)O)NC(=O)c2ccc([18F])nc2)cc1)C(=O)O)C(=O)O [[^18F]PSMA-1007, reference compound] | 19.2 ± 6.5
O=C([O-])CN1CCN(CC(=O)O)CCN(CC(=O)[O-])CCN(C(CCC(=O)N[C@H](Cc2ccc(O)c(I)c2)C(=O)N[C@H](Cc2ccccc2)C(=O)N[C@H](CCCCNC(=O)CCCCCCC(=O)NCCCC[C@H](NC(=O)N[C@@H](CCC(=O)O)C(=O)O)C(=O)O)C(=O)O)C(=O)O)CC1.[61Cu+2] (stereo partly drawn) [[^61Cu]Cu-DOTAGA-PSMA-I&T, DOTAGA-(l-y)fk(sub-KuE)] | 6.08 ± 0.22
O=C([O-])CN1CCN(CC(=O)[O-])CCN(C(CCC(=O)N[C@H](Cc2ccc(O)c(I)c2)C(=O)N[C@H](Cc2ccccc2)C(=O)N[C@H](CCCCNC(=O)CCCCCCC(=O)NCCCC[C@H](NC(=O)N[C@@H](CCC(=O)O)C(=O)O)C(=O)O)C(=O)O)C(=O)O)CC1.[61Cu+2] (stereo partly drawn) [[^61Cu]Cu-NODAGA-PSMA-I&T, NODAGA-(l-y)fk(sub-KuE)] | 13.6 ± 3.75

Now for another entry.
Inquiry: Tumor-to-Muscles ratio for O=C([O-])CN(CCN(CC(=O)[O-])Cc1cc(CCC(=O)NCCCCCC(=O)NCCCC[C@H](NC(=O)N[C@@H](CCC(=O)O)C(=O)O)C(=O)O)ccc1[O-])Cc1cc(CCC(=O)O)ccc1[O-].[68Ga+3].[OH3+] [[^68Ga]Ga-PSMA-11, reference compound] ?
Reply text: 13.6 ± 8.3

* * *

The compounds listed here are annotated with their Tumor-to-Adrenals ratio.
# Test system: LNCaP xenografts
# PROCEDURE_DETAILS: Biodistribution in LNCaP xenografts
# Assay type: in vivo, mice
# ASSAY_SETUP: 1 h after injection

Here's what some known entries look like.
O=C([O-])CN(CCN(CC(=O)[O-])Cc1cc(CCC(=O)NCCCCCC(=O)NCCCC[C@H](NC(=O)N[C@@H](CCC(=O)O)C(=O)O)C(=O)O)ccc1[O-])Cc1cc(CCC(=O)O)ccc1[O-].[68Ga+3].[OH3+] [[^68Ga]Ga-PSMA-11, reference compound] | 0.58 ± 0.26
O=C([O-])CN1CCN(CC(=O)O)CCN(CC(=O)[O-])CCN(C(CCC(=O)N[C@H](Cc2ccc(O)c(I)c2)C(=O)N[C@H](Cc2ccccc2)C(=O)N[C@H](CCCCNC(=O)CCCCCCC(=O)NCCCC[C@H](NC(=O)N[C@@H](CCC(=O)O)C(=O)O)C(=O)O)C(=O)O)C(=O)O)CC1.[61Cu+2] (stereo partly drawn) [[^61Cu]Cu-DOTAGA-PSMA-I&T, DOTAGA-(l-y)fk(sub-KuE)] | 0.66 ± 0.13
O=C(O)CC[C@H](NC(=O)N[C@@H](CCCCNC(=O)[C@H](Cc1ccc2ccccc2c1)NC(=O)c1ccc(CNC(=O)[C@H](CCC(=O)O)NC(=O)[C@H](CCC(=O)O)NC(=O)c2ccc([18F])nc2)cc1)C(=O)O)C(=O)O [[^18F]PSMA-1007, reference compound] | 1.45 ± 0.55

Please find the next compound below.
Inquiry: Look up Tumor-to-Adrenals ratio: O=C([O-])CN1CCN(CC(=O)[O-])CCN(C(CCC(=O)N[C@H](Cc2ccc(O)c(I)c2)C(=O)N[C@H](Cc2ccccc2)C(=O)N[C@H](CCCCNC(=O)CCCCCCC(=O)NCCCC[C@H](NC(=O)N[C@@H](CCC(=O)O)C(=O)O)C(=O)O)C(=O)O)C(=O)O)CC1.[61Cu+2] (stereo partly drawn) [[^61Cu]Cu-NODAGA-PSMA-I&T, NODAGA-(l-y)fk(sub-KuE)]
Reply text: 0.92 ± 0.20

* * *

The entries below come with measured Biodistribution, Heart values attached.
# Tested on: LNCaP xenografts
# PROCEDURE_DETAILS: Biodistribution in LNCaP xenografts
# Assay type: in vivo, mice
# ASSAY_SETUP: 1 h after injection
Please report the result as a number followed by the unit.

O=C([O-])CN1CCN(CC(=O)O)CCN(CC(=O)[O-])CCN(C(CCC(=O)N[C@H](Cc2ccc(O)c(I)c2)C(=O)N[C@H](Cc2ccccc2)C(=O)N[C@H](CCCCNC(=O)CCCCCCC(=O)NCCCC[C@H](NC(=O)N[C@@H](CCC(=O)O)C(=O)O)C(=O)O)C(=O)O)C(=O)O)CC1.[61Cu+2] (stereo partly drawn) [[^61Cu]Cu-DOTAGA-PSMA-I&T, DOTAGA-(l-y)fk(sub-KuE)] | 3.73 ± 0.32 %IA/g
O=C([O-])CN(CCN(CC(=O)[O-])Cc1cc(CCC(=O)NCCCCCC(=O)NCCCC[C@H](NC(=O)N[C@@H](CCC(=O)O)C(=O)O)C(=O)O)ccc1[O-])Cc1cc(CCC(=O)O)ccc1[O-].[68Ga+3].[OH3+] [[^68Ga]Ga-PSMA-11, reference compound] | 0.32 ± 0.10 %IA/g

Inquiry: # get_value(readout='Biodistribution, Heart', item= O=C(O)CC[C@H](NC(=O)N[C@@H](CCCCNC(=O)[C@H](Cc1ccc2ccccc2c1)NC(=O)c1ccc(CNC(=O)[C@H](CCC(=O)O)NC(=O)[C@H](CCC(=O)O)NC(=O)c2ccc([18F])nc2)cc1)C(=O)O)C(=O)O [[^18F]PSMA-1007, reference compound] )
Reply text: 1.25 ± 0.29 %IA/g

Inquiry: Quick one: Biodistribution, Heart for O=C([O-])CN1CCN(CC(=O)[O-])CCN(C(CCC(=O)N[C@H](Cc2ccc(O)c(I)c2)C(=O)N[C@H](Cc2ccccc2)C(=O)N[C@H](CCCCNC(=O)CCCCCCC(=O)NCCCC[C@H](NC(=O)N[C@@H](CCC(=O)O)C(=O)O)C(=O)O)C(=O)O)C(=O)O)CC1.[61Cu+2] (stereo partly drawn) [[^61Cu]Cu-NODAGA-PSMA-I&T, NODAGA-(l-y)fk(sub-KuE)] ?
Reply text: 0.45 ± 0.15 %IA/g

* * *

List of logDpH7.4 values.
# PROCEDURE_DETAILS: Lipophilicity: distribution coefficient in 1:1 1-octanol/phosphate-buffered saline at pH 7.4
# Type: physicochemical

Some compounds with known logDpH7.4 results, for comparison:
O=C([O-])CN1CCN(CC(=O)O)CCN(CC(=O)[O-])CCN(C(CCC(=O)N[C@H](Cc2ccc(O)c(I)c2)C(=O)N[C@H](Cc2ccccc2)C(=O)N[C@H](CCCCNC(=O)CCCCCCC(=O)NCCCC[C@H](NC(=O)N[C@@H](CCC(=O)O)C(=O)O)C(=O)O)C(=O)O)C(=O)O)CC1.[61Cu+2] (stereo partly drawn) [[^61Cu]Cu-DOTAGA-PSMA-I&T, DOTAGA-(l-y)fk(sub-KuE)] | −2.69 ± 0.44
O=C(O)CC[C@H](NC(=O)N[C@@H](CCCCNC(=O)[C@H](Cc1ccc2ccccc2c1)NC(=O)c1ccc(CNC(=O)[C@H](CCC(=O)O)NC(=O)[C@H](CCC(=O)O)NC(=O)c2ccc([18F])nc2)cc1)C(=O)O)C(=O)O [[^18F]PSMA-1007, reference compound] | −3.02 ± 0.11
O=C([O-])CN(CCN(CC(=O)[O-])Cc1cc(CCC(=O)NCCCCCC(=O)NCCCC[C@H](NC(=O)N[C@@H](CCC(=O)O)C(=O)O)C(=O)O)ccc1[O-])Cc1cc(CCC(=O)O)ccc1[O-].[68Ga+3].[OH3+] [[^68Ga]Ga-PSMA-11, reference compound] | −3.89 ± 0.19

Note: attention shifts to another entry.
Inquiry: // returns reported logDpH7.4 for input O=C([O-])CN1CCN(CC(=O)[O-])CCN(C(CCC(=O)N[C@H](Cc2ccc(O)c(I)c2)C(=O)N[C@H](Cc2ccccc2)C(=O)N[C@H](CCCCNC(=O)CCCCCCC(=O)NCCCC[C@H](NC(=O)N[C@@H](CCC(=O)O)C(=O)O)C(=O)O)C(=O)O)C(=O)O)CC1.[61Cu+2] (stereo partly drawn) [[^61Cu]Cu-NODAGA-PSMA-I&T, NODAGA-(l-y)fk(sub-KuE)]
Reply text: −2.95 ± 0.08
